Target: T1, human calcium-sensing receptor (CaSR) (human, UniProt P41180 20-1078)
T1 sequence (looked up): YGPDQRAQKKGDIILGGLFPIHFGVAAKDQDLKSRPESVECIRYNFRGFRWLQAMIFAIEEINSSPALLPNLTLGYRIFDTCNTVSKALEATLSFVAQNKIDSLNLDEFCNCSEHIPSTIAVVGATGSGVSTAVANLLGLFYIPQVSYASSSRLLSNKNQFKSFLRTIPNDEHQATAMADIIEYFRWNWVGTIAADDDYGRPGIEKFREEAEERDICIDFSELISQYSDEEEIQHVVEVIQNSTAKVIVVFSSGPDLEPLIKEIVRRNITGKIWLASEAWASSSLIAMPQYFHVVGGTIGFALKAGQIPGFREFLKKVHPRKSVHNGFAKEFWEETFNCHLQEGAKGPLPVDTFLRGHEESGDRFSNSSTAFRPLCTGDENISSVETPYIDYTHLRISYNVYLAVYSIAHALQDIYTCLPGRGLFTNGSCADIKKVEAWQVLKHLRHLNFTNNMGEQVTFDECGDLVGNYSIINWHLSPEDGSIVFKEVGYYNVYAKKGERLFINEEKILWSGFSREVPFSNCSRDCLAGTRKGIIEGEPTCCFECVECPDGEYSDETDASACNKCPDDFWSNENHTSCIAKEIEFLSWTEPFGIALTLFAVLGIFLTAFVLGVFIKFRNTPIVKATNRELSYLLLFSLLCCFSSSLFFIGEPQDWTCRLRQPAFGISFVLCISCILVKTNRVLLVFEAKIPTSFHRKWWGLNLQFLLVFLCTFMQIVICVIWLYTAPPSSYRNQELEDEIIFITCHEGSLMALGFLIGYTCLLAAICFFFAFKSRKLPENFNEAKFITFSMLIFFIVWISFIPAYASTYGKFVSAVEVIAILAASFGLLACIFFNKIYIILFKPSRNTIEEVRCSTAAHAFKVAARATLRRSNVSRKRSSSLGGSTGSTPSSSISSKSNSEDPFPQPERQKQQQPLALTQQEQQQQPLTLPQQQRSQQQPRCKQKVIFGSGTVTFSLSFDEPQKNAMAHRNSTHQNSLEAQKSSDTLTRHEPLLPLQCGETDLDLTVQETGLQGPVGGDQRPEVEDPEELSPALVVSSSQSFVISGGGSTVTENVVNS
Experiment: cell-based or functional assay
Square brackets hold non-standard residues; d marks the D form.
observable: EC50 (µM), CaSR in vitro assay (IP1 production)
# output: bare number, implied unit µM

Record excerpt, results attached:
binder	recorded_measurement
XXXXXXX (not fully specified; N-terminal acetyl; C-terminal amide; L-Cys 1 linked by a disulfide bond to an L-Cys residue; residues 2-7 D-amino acids) [Ac-C(C)arrrar-NH2]	2.5
Ac-CYGRKKRRQRRR-NH2 [Ac-CYGRKKRRQRRR-NH2]	4.5
Ac-[dC][dA][dA][dA][dR][dR][dR][dR][dR][dR]-NH2 (SMILES CC(=O)N[C@H](CS)C(=O)N[C@H](C)C(=O)N[C@H](C)C(=O)N[C@H](C)C(=O)N[C@H](CCCNC(=N)N)C(=O)N[C@H](CCCNC(=N)N)C(=O)N[C@H](CCCNC(=N)N)C(=O)N[C@H](CCCNC(=N)N)C(=O)N[C@H](CCCNC(=N)N)C(=O)N[C@H](CCCNC(=N)N)C(N)=O) [Ac-caaarrrrrr-NH2]	4.6
Ac-YGRKKRRQRRR-NH2 [Ac-YGRKKRRQRRR-NH2]	16

Query string: I am curious: what EC50 (µM), CaSR in vitro assay (IP1 production) value has been reported for XXXXX (N-terminal acetyl; C-terminal amide; all residues D-amino acids) [Ac-crrrr-NH2] ?
Result string: 16

Origin of values: patent US20130150297A1
